The measured values listed here are drawn from paper PMC4336329.

# Tested system: human ether-à-go-go-related gene (hERG) potassium channel (human, UniProt Q12809)
# Sequence (Q12809 whole entry, looked up): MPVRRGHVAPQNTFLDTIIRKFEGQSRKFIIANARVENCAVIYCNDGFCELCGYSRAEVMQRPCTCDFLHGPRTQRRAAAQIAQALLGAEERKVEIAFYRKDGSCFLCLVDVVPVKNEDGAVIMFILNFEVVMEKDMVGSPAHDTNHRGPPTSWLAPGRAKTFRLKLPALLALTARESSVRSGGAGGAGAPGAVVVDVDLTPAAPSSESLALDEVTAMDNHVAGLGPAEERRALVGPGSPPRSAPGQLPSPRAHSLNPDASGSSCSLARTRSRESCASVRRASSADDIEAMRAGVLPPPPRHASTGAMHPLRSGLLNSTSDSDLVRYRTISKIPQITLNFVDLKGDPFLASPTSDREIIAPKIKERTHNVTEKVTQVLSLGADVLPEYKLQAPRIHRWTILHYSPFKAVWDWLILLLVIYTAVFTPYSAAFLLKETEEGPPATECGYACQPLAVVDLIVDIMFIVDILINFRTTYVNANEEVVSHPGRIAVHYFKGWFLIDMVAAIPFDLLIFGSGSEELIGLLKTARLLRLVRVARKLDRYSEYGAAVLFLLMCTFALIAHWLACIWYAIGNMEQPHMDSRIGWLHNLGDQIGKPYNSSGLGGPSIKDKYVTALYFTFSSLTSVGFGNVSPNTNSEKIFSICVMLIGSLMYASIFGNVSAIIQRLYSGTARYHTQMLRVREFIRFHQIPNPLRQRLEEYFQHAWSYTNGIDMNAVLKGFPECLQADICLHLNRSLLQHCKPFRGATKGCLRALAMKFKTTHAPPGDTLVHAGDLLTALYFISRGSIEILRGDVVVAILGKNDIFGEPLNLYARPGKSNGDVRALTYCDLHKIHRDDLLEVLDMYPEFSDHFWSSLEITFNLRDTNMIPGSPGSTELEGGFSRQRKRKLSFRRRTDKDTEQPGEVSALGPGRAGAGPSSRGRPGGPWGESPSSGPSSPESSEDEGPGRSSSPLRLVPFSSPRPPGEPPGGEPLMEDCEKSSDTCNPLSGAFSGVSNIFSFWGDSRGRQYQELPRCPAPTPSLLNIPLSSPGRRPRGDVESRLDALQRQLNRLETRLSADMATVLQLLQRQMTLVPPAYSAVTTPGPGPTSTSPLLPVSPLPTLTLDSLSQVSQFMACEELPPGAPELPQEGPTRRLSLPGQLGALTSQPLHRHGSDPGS
# Assay name: primary screen, population patch clamp on CHO cells stably expressing hERG; higher = less effect of the substance
The whole screen tested about 310,000 compounds, of which about 2,200 (0.71%) showed an effect of 50% or more. Effects have a minus sign here. Only a selection was taken, and strong results are over-represented in it overall.
As shown below, each of these compounds has a reported hERG current change (%, negative = inhibition) at 1uM value.
Parameter measured: hERG current change (%, negative = inhibition) at 1uM (%)

In [3]: df
Out[3]:
                                   compound  meas_value
0  C/C(CC(=O)Nc1cccc(Cl)c1Cl)=N\NC(=O)c1ccccc1C        8.35
1   O=C(Nc1cc(Cl)ccc1N1CCOCC1)c1cc2ccccc2o1        8.14
2  COc1ccc(C(=O)C2CCCN(Cc3ccccn3)C2)c(OC)c1 (centres unmarked)       -3.83
3  COc1ccc(C(=O)C2CCCN(C(=O)CCc3ccccn3)C2)c(C)c1 (centres unmarked)        9.98
4  COc1ccc(C(=O)C2CCCN(Cc3cccn3-c3ccccn3)C2)c(C)c1 (centres unmarked)       -84.8
